Entries and their Kd
Target: T1, 14-3-3ζ (human, full-length) (human, UniProt P63104 1-245)
T1 construct: N-terminal glycine retained after TEV cleavage of the His tag; 14-3-3ζ, human, ORF bought from GeneCopoeia, in Gateway pDEST17; full-length; Dimer in the crystal; the ITC stoichiometry counts on the 14-3-3 monomer; also called WT 14-3-3ζ; source: E. coli BL21 (DE3) pLysS, purified (Ni Sepharose, TEV cleavage, second Ni Sepharose pass); not shown: His tag, N-terminal, cleaved
T1 sequence: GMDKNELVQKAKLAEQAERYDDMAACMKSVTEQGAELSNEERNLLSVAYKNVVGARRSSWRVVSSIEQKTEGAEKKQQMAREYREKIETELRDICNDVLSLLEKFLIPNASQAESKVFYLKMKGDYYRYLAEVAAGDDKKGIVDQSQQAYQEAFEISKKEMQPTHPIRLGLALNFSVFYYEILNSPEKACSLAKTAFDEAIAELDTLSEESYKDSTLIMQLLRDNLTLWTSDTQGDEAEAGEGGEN
Test: ITC; VP-ITC, 25°C; ~1-2 mM peptide titrated in 5 uL aliquots into ~100-200 uM 14-3-3ζ in the cell; 50 mM sodium phosphate, 100 mM NaCl, 1 mM DTT, pH 6.8; one-site model; in duplicate
Details: both partners purified
Square brackets hold non-standard residues; d marks the D form. Ends that are not written are not given here. pS = N[C@@H](COP(=O)(O)O)C(=O)O
readout-label: Kd (nM)

binder: Ac-RKSA[pS]LP-NH2 (SMILES CC(=O)N[C@@H](CCCNC(=N)N)C(=O)N[C@@H](CCCCN)C(=O)N[C@@H](CO)C(=O)N[C@@H](C)C(=O)N[C@@H](COP(=O)(O)O)C(=O)N[C@@H](CC(C)C)C(=O)N1CCC[C@H]1C(N)=O, Chibby (Cby), human, residues 16-22 with S22P; also called Cby 7-mer S22P; 16RKSA(pS)LP22; source: synthetic peptide, bought: TUFTS University Core Facility) [pCby S22P 7-mer]
recorded-result: 2900
//
binder: KTPPRKSA[pS]LPNLHSLDR (Chibby (Cby), human, residues 12-29 with S22P; free NH2 and COOH ends; also called Cby 18-mer S22P; source: synthetic peptide, bought: TUFTS University Core Facility) [pCby S22P 18-mer]
recorded-result: 360
//
binder: Ac-RKSA[pS]LS-NH2 (SMILES CC(=O)N[C@@H](CCCNC(=N)N)C(=O)N[C@@H](CCCCN)C(=O)N[C@@H](CO)C(=O)N[C@@H](C)C(=O)N[C@@H](COP(=O)(O)O)C(=O)N[C@@H](CC(C)C)C(=O)N[C@@H](CO)C(N)=O, also called 16RKSA(pS)LS22; pCby WT 7-mer; source: synthetic peptide, bought: TUFTS University Core Facility) [pCby 7-mer]
recorded-result: 43500
//
binder: KTPPRKSA[pS]LPNL (Chibby (Cby), human, residues 12-24 with S22P; free NH2 and COOH ends; also called Cby 13-mer S22P; source: synthetic peptide, bought: TUFTS University Core Facility) [pCby S22P 13-mer]
recorded-result: 1100

Values from paper PMC4409382
